Would you kindly list metabolised at 0.25 h, 1 µM for each of these molecules?
Experiment: Drug metabolism in human liver microsomes at 1 uM after 15 mins
Type: ADME, Microsome
Details: read-out: Drug metabolism
Give bare numbers, in %.

Example molecules with recorded metabolised at 0.25 h, 1 µM:
- INPUT_SMILES: "COC(=O)N[C@H](C(=O)N[C@@H](Cc1ccc(-c2ccc(N(C)C)nc2)cc1)[C@@H](O)C[C@@H](Cc1ccccc1F)C(=O)N[C@H]1[C@H](C)CCC[C@H]1O)C(C)(C)C"
  metabolised at 0.25 h, 1 µM / %: 99
- INPUT_SMILES: "COC(=O)N[C@H](C(=O)N[C@@H](Cc1ccc(-c2ccc(OC)nc2)cc1)[C@@H](O)C[C@@H](Cc1ccccc1F)C(=O)N[C@H]1c2cc(Cl)ccc2OC[C@H]1O)C(C)(C)C"
  metabolised at 0.25 h, 1 µM / %: 23
- INPUT_SMILES: "COC(=O)N[C@H](C(=O)N[C@@H](Cc1ccc(-c2ccc(OC)nc2)cc1)[C@@H](O)C[C@@H](Cc1ccccc1F)C(=O)N[C@H]1c2cc(F)ccc2OC[C@H]1O)C(C)(C)C"
  metabolised at 0.25 h, 1 µM / %: 48
- INPUT_SMILES: "COC(=O)N[C@H](C(=O)N[C@@H](Cc1ccc(-c2ccc(OC)nc2)cc1)[C@@H](O)C[C@@H](Cc1ccccc1Cl)C(=O)N[C@H]1c2cc(Cl)ccc2OC[C@H]1O)C(C)(C)C"
  metabolised at 0.25 h, 1 µM / %: 5

Specify measured metabolised at 0.25 h, 1 µM for `COC(=O)N[C@H](C(=O)N[C@@H](Cc1ccc(-c2ccc(OC)nc2)cc1)[C@@H](O)C[C@@H](Cc1ccccc1F)C(=O)N[C@H]1c2cc(C)cc(F)c2OC[C@H]1O)C(C)(C)C` .
48
